biological target: UniProt Q9HAW9; test: Substrate inhibition of human UGT1A8-mediated T-5224 hydroxyl O-glucuronide formation after 10 to 60 mins in presence of UDP-glucuronic acid by HPLC method
Sequence (Q9HAW9 whole entry): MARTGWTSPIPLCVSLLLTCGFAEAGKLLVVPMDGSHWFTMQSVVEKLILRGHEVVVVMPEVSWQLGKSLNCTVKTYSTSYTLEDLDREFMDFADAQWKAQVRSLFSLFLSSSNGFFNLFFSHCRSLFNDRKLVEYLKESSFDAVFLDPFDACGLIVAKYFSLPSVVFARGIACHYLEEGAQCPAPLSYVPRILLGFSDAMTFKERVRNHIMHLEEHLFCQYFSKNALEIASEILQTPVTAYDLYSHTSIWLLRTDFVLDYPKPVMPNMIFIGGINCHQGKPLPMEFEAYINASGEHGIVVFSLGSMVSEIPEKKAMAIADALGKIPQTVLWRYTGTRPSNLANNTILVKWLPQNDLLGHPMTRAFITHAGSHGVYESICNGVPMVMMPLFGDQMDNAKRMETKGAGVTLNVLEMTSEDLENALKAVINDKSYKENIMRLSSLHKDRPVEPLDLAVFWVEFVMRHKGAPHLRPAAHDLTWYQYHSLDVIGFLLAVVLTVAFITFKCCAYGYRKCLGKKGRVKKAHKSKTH
pKi: −log10 of the molar value.
ATTRIBUTE MEASURED: pKi

>>> readout_number("O=C(O)CCc1cc(C(=O)c2ccc(OC3CCCC3)cc2O)ccc1OCc1ccc2c(O)noc2c1")
5.44

Data provenance is ChEMBL document CHEMBL3526015.
